Target: HLA-B*18:01
Assay: IEDB peptide-MHC binding, purified MHC/direct/fluorescence; filed as Kd, often an IC50 or EC50 that approximates it; bounds were set here for any values at or beyond the usual limits of such assays
Settings: source organism: Mycobacterium ulcerans
observable: Kd (nM)
Unit nM implied. Number only.

Data request: Dear colleague, please send me the reported Kd for AEREPFQYF when you can.
Data returned: 208

###

Molecular target: HLA-B*15:01
Experiment: IEDB peptide-MHC binding, purified MHC/direct/fluorescence; filed as Kd, often an IC50 or EC50 that approximates it; bounds were set here for any values at or beyond the usual limits of such assays
Settings: source organism: Influenza A virus (A/Puerto Rico/8/34/Mount Sinai(H1N1))
observable: Kd
Please give the number followed by its unit.

Data request: Dear colleague, please send me the reported Kd for ASRGLWDSF when you can.
Data returned: 891 nM

###

Target: HLA-A*26:01
Assay: IEDB peptide-MHC binding, purified MHC/competitive/fluorescence; filed as Kd, often an IC50 or EC50 that approximates it; bounds were set here for any values at or beyond the usual limits of such assays
Conditions: source organism: Choclo virus
pKd: −log10 of the molar value.
observable: pKd

Data request: Retrieve pKd on HLA-A*26:01; query LPSSSSYSY
Data returned: ≤ 4.70

###

Target: HLA-A*03:01
Experiment: IEDB peptide-MHC binding, purified MHC/competitive/fluorescence; filed as Kd, often an IC50 or EC50 that approximates it; bounds were set here for any values at or beyond the usual limits of such assays
Conditions: source organism: Brucella abortus 2308
observable: pKd
# pKd is unitless: minus log10 of the molar concentration; print number only

Data request: Retrieve pKd on HLA-A*03:01; query KVHAVLTEH
Data returned: 7.03

###

Biological target: HLA-B*46:01
Test: IEDB peptide-MHC binding, purified MHC/direct/fluorescence; filed as Kd, often an IC50 or EC50 that approximates it; bounds were set here for any values at or beyond the usual limits of such assays
Conditions: source organism: Buffalopox virus
observable: Kd

Data request: Dear colleague, please send me the reported Kd for IHSDQLSKF when you can.
Data returned: ≥ 20 µM

###

Target: HLA-A*02:01
Assay: IEDB peptide-MHC binding, purified MHC/direct/fluorescence; filed as Kd, often an IC50 or EC50 that approximates it; bounds were set here for any values at or beyond the usual limits of such assays
Details: source organism: Mycobacterium tuberculosis
observable: pKd
# pKd is unitless: minus log10 of the molar concentration; print number only

Data request: Dear colleague, please send me the reported pKd for LLLRPFWPA when you can.
Data returned: 6.95

###

Molecular target: HLA-C*06:02
Experiment: IEDB peptide-MHC binding, purified MHC/direct/fluorescence; filed as Kd, often an IC50 or EC50 that approximates it; bounds were set here for any values at or beyond the usual limits of such assays
Details: source organism: Kurkino virus
observable: Kd (nM)
Unit nM implied. Number only.

Data request: Dear colleague, please send me the reported Kd for RRNDGVVQY when you can.
Data returned: 61

###

Target: HLA-A*23:01
Test: IEDB peptide-MHC binding, purified MHC/competitive/radioactivity; filed as Kd, often an IC50 or EC50 that approximates it; bounds were set here for any values at or beyond the usual limits of such assays
Details: source organism: Dengue virus 4 Dominica/814669/1981
observable: Kd (nM)
Unit nM implied. Number only.

Data request: Retrieve Kd on HLA-A*23:01; query MSPGYVLGVF
Data returned: 1000

###

Target: HLA-A*02:12
Experiment: IEDB peptide-MHC binding, purified MHC/competitive/fluorescence; filed as Kd, often an IC50 or EC50 that approximates it; bounds were set here for any values at or beyond the usual limits of such assays
Settings: source organism: Entamoeba histolytica HM-1:IMSS
observable: pKd
# pKd is unitless: minus log10 of the molar concentration; print number only

Data request: Dear colleague, please send me the reported pKd for NQNDNEETV when you can.
Data returned: 7.39

###

Biological target: HLA-A*03:01
Assay: IEDB peptide-MHC binding, purified MHC/competitive/fluorescence; bounds were set here for any values at or beyond the usual limits of such assays
Conditions: source organism: Mus musculus
pIC50: −log10 of the molar value.
observable: pIC50

Data request: Dear colleague, please send me the reported pIC50 for VALFSSCPVAY when you can.
Data returned: ≤ 4.70

###

Biological target: HLA-B*40:01
Assay: IEDB peptide-MHC binding, purified MHC/direct/fluorescence; filed as Kd, often an IC50 or EC50 that approximates it; bounds were set here for any values at or beyond the usual limits of such assays
Details: source organism: Shewanella violacea
pKd: −log10 of the molar value.
observable: pKd

Data request: Dear colleague, please send me the reported pKd for ETKGKRRLL when you can.
Data returned: ≤ 4.70

###

Target: HLA-A*02:01
Experiment: IEDB peptide-MHC binding, purified MHC/direct/fluorescence; filed as Kd, often an IC50 or EC50 that approximates it; bounds were set here for any values at or beyond the usual limits of such assays
Conditions: source organism: Escherichia coli O157:H7
pKd: −log10 of the molar value.
observable: pKd

| sequence-input | reported |
| --- | --- |
| YLFQWNDNV | 8.68 |
| GITGGHIPK | ≤ 4.70 |

As a next step, examine the sequence that follows.
Data request: Dear colleague, please send me the reported pKd for EQRLIDICV when you can.
Data returned: ≤ 4.70

###

Target: HLA-B*27:05
Assay: IEDB peptide-MHC binding, purified MHC/direct/fluorescence; filed as Kd, often an IC50 or EC50 that approximates it; bounds were set here for any values at or beyond the usual limits of such assays
Conditions: source organism: Buffalopox virus
pKd: −log10 of the molar value.
observable: pKd

Data request: Dear colleague, please send me the reported pKd for IHSDQLSKF when you can.
Data returned: ≤ 4.70

###

Entries and their pKd values follow.
Molecular target: HLA-B*44:02
Assay: IEDB peptide-MHC binding, purified MHC/direct/fluorescence; filed as Kd, often an IC50 or EC50 that approximates it; bounds were set here for any values at or beyond the usual limits of such assays
Details: source organism: Brucella melitensis
pKd: −log10 of the molar value.

| sequence-input | reported |
| --- | --- |
| RVISDGYFK | ≤ 4.70 |

As a next step, examine the sequence that follows.
Data request: Dear colleague, please send me the reported pKd for RLWNGRRCR when you can.
Data returned: ≤ 4.70

###

Biological target: HLA-A*80:01
Assay: IEDB peptide-MHC binding, purified MHC/direct/fluorescence; filed as Kd, often an IC50 or EC50 that approximates it; bounds were set here for any values at or beyond the usual limits of such assays
Settings: source organism: Camelpox virus M-96
observable: Kd

Data request: Dear colleague, please send me the reported Kd for ITYLMNRFK when you can.
Data returned: ≥ 20 µM

###

Target: HLA-A*03:01
Experiment: IEDB peptide-MHC binding, purified MHC/competitive/radioactivity; filed as Kd, often an IC50 or EC50 that approximates it; bounds were set here for any values at or beyond the usual limits of such assays
Settings: source organism: Mammarenavirus brazilense
observable: Kd
Please give the number followed by its unit.

Data request: Dear colleague, please send me the reported Kd for SVTLDFTKFH when you can.
Data returned: 7.52 µM

Data request: Dear colleague, please send me the reported Kd for MVNHSTYYV when you can.
Data returned: 0.0947 µM

###

Target: HLA-C*03:03
Assay: IEDB peptide-MHC binding, purified MHC/direct/fluorescence; filed as Kd, often an IC50 or EC50 that approximates it; bounds were set here for any values at or beyond the usual limits of such assays
Conditions: source organism: Rickettsia bellii RML369-C
observable: pKd
# pKd is unitless: minus log10 of the molar concentration; print number only

Data request: Dear colleague, please send me the reported pKd for FTIGNMFSL when you can.
Data returned: 7.26

###

Biological target: HLA-A*26:01
Assay: IEDB peptide-MHC binding, purified MHC/competitive/fluorescence; filed as Kd, often an IC50 or EC50 that approximates it; bounds were set here for any values at or beyond the usual limits of such assays
Conditions: source organism: Yersinia pestis Nepal516
pKd: −log10 of the molar value.
observable: pKd

Data request: Dear colleague, please send me the reported pKd for YMYDFILRF when you can.
Data returned: ≤ 4.70

###

Molecular target: HLA-B*48:01
Assay: IEDB peptide-MHC binding, purified MHC/direct/fluorescence; filed as Kd, often an IC50 or EC50 that approximates it; bounds were set here for any values at or beyond the usual limits of such assays
Conditions: source organism: Orthohantavirus dobravaense
observable: Kd

Data request: Dear colleague, please send me the reported Kd for RRNDGVVQY when you can.
Data returned: ≥ 20 µM

###

Molecular target: HLA-A*31:01
Assay: IEDB peptide-MHC binding, purified MHC/direct/fluorescence; filed as Kd, often an IC50 or EC50 that approximates it; bounds were set here for any values at or beyond the usual limits of such assays
Settings: source organism: SARS-CoV1
Entries and their Kd values follow.
Unit nM implied. Number only.

| sequence-input | reported |
| --- | --- |
| ALRANSAVK | 479 |

As a next step, examine the sequence that follows.
Data request: Dear colleague, please send me the reported Kd for KSYEHQTPF when you can.
Data returned: 186
